system: NCI-H226; assay: NCI tumour cell line growth inhibition, 48 h
Active and inactive are the calls of the source. Rule as the data show it: active = GI50 up to about 1.1 µM and inactive = higher.
# GI50 per entry

[
  {
    "Molecule": "CC(C)c1cccc2sc(NC(=O)C(=O)CC(=O)c3ccc(F)cc3)nc12",
    "GI50": "> 100 µM (inactive)"
  },
  {
    "Molecule": "O=C(O)Cc1cc(=O)[nH]c2c1/C(=N/O)CCC2",
    "GI50": "> 100 µM (inactive)"
  },
  {
    "Molecule": "O=C1C(=O)C(CCCO)(CCCO)CCCCCCCCC1(CCCO)CCCO",
    "GI50": "> 100 µM (inactive)"
  },
  {
    "Molecule": "CC(C)(C)OC(=O)NCC(=O)NC1CC=CCC1NC(=O)CNC(=O)OC(C)(C)C (centres undefined)",
    "GI50": "> 100 µM (inactive)"
  },
  {
    "Molecule": "CCC(O)CCCCCCCCCCCCCCC(=O)O (centres undefined)",
    "GI50": "> 100 µM (inactive)"
  },
  {
    "Molecule": "CO/N=C\\c1cc(O)c(O)c(/C=N/OC)c1",
    "GI50": "30.3 µM (inactive)"
  },
  {
    "Molecule": "O=C(O)c1[nH]c(=O)[nH]c(=O)c1CN1CCCCC1",
    "GI50": "> 100 µM (inactive)"
  },
  {
    "Molecule": "C[C@@H]1[C@H](O)CC2=C(CC[C@@H](O)C2(C)C)[C@@]1(CO)CCc1ccoc1",
    "GI50": "> 50 µM (inactive)"
  },
  {
    "Molecule": "O=c1[nH]c2cc(F)c(F)cc2nc1Cc1ccccc1",
    "GI50": "> 100 µM (inactive)"
  },
  {
    "Molecule": "N[C@H]1CCCC[C@@H]1N1C(=O)c2ccccc2C1(O)c1ccc(Cl)cc1 (some centres undefined)",
    "GI50": "15.9 µM (inactive)"
  },
  {
    "Molecule": "CCOC(=O)c1sc2ncnc(N)c2c1C",
    "GI50": "75.5 µM (inactive)"
  },
  {
    "Molecule": "O=[N+]([O-])c1ccc(C(c2c[nH]c3ccccc23)c2c[nH]c3ccccc23)cc1",
    "GI50": "10.7 µM (inactive)"
  },
  {
    "Molecule": "O=C1CSC2(CC(/C=C/c3cccs3)=NN2c2cccc(S(=O)(=O)O)c2)N1c1nc2ccccc2s1 (centres undefined)",
    "GI50": "39.9 µM (inactive)"
  },
  {
    "Molecule": "COC(=O)c1cc(-c2ccc(OC)c(OC)c2)oc1-c1ccc(OC)c(OC)c1",
    "GI50": "34.3 µM (inactive)"
  },
  {
    "Molecule": "CN(C)CCCCN1c2ccccc2Sc2ccc(C(=O)c3ccccc3)cc21",
    "GI50": "5.96 µM (inactive)"
  },
  {
    "Molecule": "Cn1c2c(c3ccccc31)CCN1C(=O)CN(C(=O)C3CCCCC3)CC21 (centres undefined)",
    "GI50": "> 100 µM (inactive)"
  },
  {
    "Molecule": "Cc1ccc(C(=O)C2=CN=C3C(=O)N(c4ccccc4)N(C)C3(C)C2=N)cc1 (centres undefined)",
    "GI50": "> 100 µM (inactive)"
  },
  {
    "Molecule": "c1ccc(/N=C2\\c3ccsc3/C(=N/c3ccccc3)c3ccsc32)cc1",
    "GI50": "5.57 µM (inactive)"
  },
  {
    "Molecule": "CCOC(=O)C1=CC(C)(C(=O)OCC)Nc2c(nc(SC)n(C)c2=O)N1 (centres undefined)",
    "GI50": "> 10 µM (inactive)"
  },
  {
    "Molecule": "Cn1c2ccccc2c(=NNc2ccc(S(N)(=O)=O)cc2)c2ccccc21",
    "GI50": "10.9 µM (inactive)"
  },
  {
    "Molecule": "CC1(C)CCN2C(=O)C34CCCC3CC21S4 (centres undefined)",
    "GI50": "> 100 µM (inactive)"
  },
  {
    "Molecule": "CCN(C(=O)/C=C/c1ccco1)c1ccccc1",
    "GI50": "> 100 µM (inactive)"
  },
  {
    "Molecule": "CCN(CC)CC1CCCCN1CC(=O)N1c2ccccc2C(=O)Nc2cccnc21 (centres undefined)",
    "GI50": "41 µM (inactive)"
  },
  {
    "Molecule": "Cc1cc(N(C)C)ccc1/N=N/c1ccc2ncccc2c1",
    "GI50": "31.8 µM (inactive)"
  },
  {
    "Molecule": "c1ccc2c3nnc(c2c1)SCCCSc1nnc(c2ccccc12)SCCCS3",
    "GI50": "24.3 µM (inactive)"
  },
  {
    "Molecule": "Cc1cc(/N=C/c2ccc(C#N)cc2)n(-c2ccccc2)n1",
    "GI50": "> 100 µM (inactive)"
  },
  {
    "Molecule": "Cc1cn([C@H]2C[C@](C)(CO)N(C)O2)c(=O)[nH]c1=O",
    "GI50": "> 100 µM (inactive)"
  },
  {
    "Molecule": "FC(F)(F)C1(C(F)(F)F)OC(Cl)(Cl)C(Cl)(Cl)O1",
    "GI50": "> 10 µM (inactive)"
  },
  {
    "Molecule": "CCCCC1(C2c3ccccc3Oc3ccccc32)C(=O)N(c2ccccc2)N(c2ccccc2)C1=O",
    "GI50": "> 80.9 µM (inactive)"
  },
  {
    "Molecule": "CN1N=C2NCCNC3=NN(C)/C(=N/CC/N=C/1S2)S3",
    "GI50": "> 100 µM (inactive)"
  },
  {
    "Molecule": "CC[C@]1(Cc2ccc(OC)c(OC)c2)C=[N+]([O-])O[C@H](OC2CCCC2(c2ccccc2)c2ccccc2)[C@@H]1OC(=O)c1ccccc1 (some centres undefined)",
    "GI50": "18 µM (inactive)"
  },
  {
    "Molecule": "CC1CCN(CCC(=O)CC(c2ccccc2)c2c(O)c3ccccc3oc2=O)CC1 (centres undefined)",
    "GI50": "80 µM (inactive)"
  },
  {
    "Molecule": "Cc1ccc(/C=C/C(=O)CCN(C)C)cc1",
    "GI50": "19.2 µM (inactive)"
  },
  {
    "Molecule": "Nc1nc2c(ncn2Cc2ccccc2CO)c(=O)[nH]1",
    "GI50": "> 100 µM (inactive)"
  },
  {
    "Molecule": "Cc1cc2nc3c(=O)n(C)c(=O)nc-3n(-c3ccc(Cl)cc3)c2cc1C",
    "GI50": "13.1 µM (inactive)"
  },
  {
    "Molecule": "C=CCC1(OCc2ccccc2)C(=O)C(=O)OC1C1COC(C)(C)O1 (centres undefined)",
    "GI50": "> 100 µM (inactive)"
  },
  {
    "Molecule": "N#CC(/N=N/c1ccc(Cl)cc1)c1nc2ccccc2o1 (centres undefined)",
    "GI50": "> 100 µM (inactive)"
  },
  {
    "Molecule": "Clc1ccc(C[P+](c2ccccc2)(c2ccccc2)c2ccccc2)cc1Cl",
    "GI50": "2.8 µM (inactive)"
  },
  {
    "Molecule": "CC1=NN(c2ccccc2)C(=O)C1/N=N/c1ccc(Br)c(C)c1 (centres undefined)",
    "GI50": "> 100 µM (inactive)"
  }
]
